Hey, just so you know, these numbers are from paper PMC6032152.

Assay Target: T1, AtSR1 (CAMTA3) CG-1 domain (Arabidopsis thaliana, UniProt Q8GSA7 1-153)
T1 sequence: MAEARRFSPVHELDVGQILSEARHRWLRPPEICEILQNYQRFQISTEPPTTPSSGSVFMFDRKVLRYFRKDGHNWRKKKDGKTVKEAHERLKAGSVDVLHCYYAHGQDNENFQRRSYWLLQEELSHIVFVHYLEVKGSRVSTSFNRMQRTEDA
Procedure Details: EMSA; EMSA; buffer, salt, pH and temperature not given in the material
Test Conditions: protein: recombinant; tags: 6His (pET32a-derived plasmid)
Assay Readout: binding result

* IAA19 promoter fragment (dsDNA) DNA 1: AAAAAGCACGACGCGGTGCCATTACT DNA 2: AGTAATGGCACCGCGTCGTGCTTTTT | binds
* SAUR41 promoter fragment (dsDNA) DNA 1: AACGAAGGGCCCGCGCTGTACTCGAT DNA 2: ATCGAGTACAGCGCGGGCCCTTCGTT | no binding
* IAA1-2 promoter fragment (dsDNA) DNA 1: AAGAAAGAAGCCGCGTCCAAAATCTT DNA 2: AAGATTTTGGACGCGGCTTCTTTCTT | binds
* NPR1 promoter fragment (dsDNA) DNA 1: AAAGTAAAAAACGCGGAAAGCAATAA DNA 2: TTATTGCTTTCCGCGTTTTTTACTTT | binds
* At5g41750-2 promoter fragment (dsDNA) DNA 1: TCATTGGTCCTCGCGACTATAACAAA DNA 2: TTTGTTATAGTCGCGAGGACCAATGA | binds

For every item below, please supply its binding result.
1. ADR1 promoter fragment (dsDNA) DNA 1: ATTAATCAAAACGCGTAAAAAGAGTA DNA 2: TACTCTTTTTACGCGTTTTGATTAAT
2. At5g41750-1 promoter fragment (dsDNA) DNA 1: TCTTTAGTCGTCGCGAATTCTTTGGG DNA 2: CCCAAAGAATTCGCGACGACTAAAGA
3. PDF1.4 promoter fragment (dsDNA) DNA 1: CGTGAAAGTCACGCGCCAAGAACAAA DNA 2: TTTGTTCTTGGCGCGTGACTTTCACG
4. DWF4 promoter fragment (dsDNA) DNA 1: ATAAGCCTATACGCGCTCAAAGTATG DNA 2: CATACTTTGAGCGCGTATAGGCTTAT

Result string:
1: binds; 2: no binding; 3: binds; 4: binds
